# PROCEDURE SUMMARY: Ex vivo permeation, Franz cells
# Assay type: in vitro ADME, porcine
# STUDY CONDITIONS: CS-loaded OFs
Marks after values point to notes of the source that are not given here.
TEST READOUT: Quantification of permeated compounds

For orientation, consider the following solved cases.
{"columns": ["COMPOUND", "TEST READOUT", "VALUE MEASURED"],
 "data": [
  ["O=C(O)[C@]1(O)C[C@@H](O)[C@@H](O)[C@H](O)C1 [Quinic acid]", "Quantification of permeated compounds", "0.39 ± 0.01^a mg/g film"],
  ["O=C(O)C[C@H](C(=O)O)[C@@H](O)C(=O)O [Isocitric acid]", "Quantification of permeated compounds", "2.21 ± 0.16^a mg/g film"],
  ["O=C(O)c1cccc(O)c1 [3-Hydroxybenzoic acid]", "Quantification of permeated compounds", "0.09 ± 0.02^a mg/g film"],
  ["N[C@@H](Cc1ccccc1)C(=O)O [L-Phenylalanine]", "Quantification of permeated compounds", "0.42 ± 0.01^a mg/g film"],
  ["COc1cc(CC(=O)O)ccc1O [Homovanillic acid]", "Quantification of permeated compounds", "1.67 ± 0.03^a mg/g film"],
  ["O=C(CCc1ccc(O)cc1)c1c(O)cc(O)cc1O[C@@H]1O[C@H](CO)[C@@H](O)[C@H](O)[C@H]1O [Phlorizin]", "Quantification of permeated compounds", "0.87 ± 0.06^a mg/g film"],
  ["O=C(O)CCCCCCCCCC(=O)O [Undecanedioic acid]", "Quantification of permeated compounds", "23.67 ± 5.00^a mg/g film"],
  ["O=C(O)CCCCCC(=O)O [Pimelic acid]", "Quantification of permeated compounds", "30.41 ± 0.01^a mg/g film"]
]}

Input: # lookup: Quantification of permeated compounds of O=c1oc2c(O)c(O)cc3c(=O)oc4c(O)c(O)cc1c4c23 [Ellagic acid]
Output: 1.27 ± 0.05^a mg/g film

Input: # lookup: Quantification of permeated compounds of O=C(O)c1ccc(O)c(O)c1 [Protocatechuic acid]
Output: 0.13 ± 0.01^a mg/g film

Input: # lookup: Quantification of permeated compounds of O=C(O)CCCCC(=O)O [Adipic acid]
Output: 11.84 ± 2.11^a mg/g film

Input: # lookup: Quantification of permeated compounds of O=C(O)CCC(=O)O [Succinic acid]
Output: 0.38 ± 0.01^a mg/g film

Input: # lookup: Quantification of permeated compounds of N[C@@H](Cc1c[nH]c2ccccc12)C(=O)O [L-Tryptophan]
Output: 1.18 ± 0.09^a mg/g film

* * *

# PROCEDURE SUMMARY: Ex vivo permeation, Franz cells
# Format: in vitro ADME, porcine
# STUDY CONDITIONS: from CS-loaded OFs, 30 min
Marks after values point to notes of the source that are not given here.
TEST READOUT: Permeation (%)

Input: # lookup: Permeation (%) of `O=C(O)CCCCC(=O)O`
Output: 97.59 ± 2.36^b %

Input: # lookup: Permeation (%) of `O=C(O)C[C@H](C(=O)O)[C@@H](O)C(=O)O`
Output: 19.02 ± 0.90^a %

Input: # lookup: Permeation (%) of `O=C(O)CCC(=O)O`
Output: 16.11 ± 0.72^a %

Input: # lookup: Permeation (%) of O=C(O)c1cccc(O)c1 [3-Hydroxybenzoic acid]
Output: 105.28 ± 3.37^b %

Input: # lookup: Permeation (%) of `O=C(O)[C@]1(O)C[C@@H](O)[C@@H](O)[C@H](O)C1`
Output: 74.31 ± 1.78^b %

* * *

Each entry below carries its recorded Permeation (%).
# PROCEDURE SUMMARY: Ex vivo permeation, Franz cells
# Type: in vitro ADME, porcine
# STUDY CONDITIONS: from CS extract, 15 min
Marks after values point to notes of the source that are not given here.

{"columns": ["COMPOUND", "Permeation (%)"],
 "data": [
  ["O=C(O)[C@]1(O)C[C@@H](O)[C@@H](O)[C@H](O)C1", "29.36 ± 1.68^a %"]
]}

Input: # lookup: Permeation (%) of `O=C(CCc1ccc(O)cc1)c1c(O)cc(O)cc1O[C@@H]1O[C@H](CO)[C@@H](O)[C@H](O)[C@H]1O`
Output: 18.69 ± 0.04^a %

Input: # lookup: Permeation (%) of `O=C(O)CCC(=O)O`
Output: 60.67 ± 0.21^b %

Input: # lookup: Permeation (%) of `O=C(O)CCCCCCCCCC(=O)O`
Output: 85.64 ± 4.12^a %

Input: # lookup: Permeation (%) of `COc1cc(CC(=O)O)ccc1O`
Output: 99.88 ± 2.79^a %

Input: # lookup: Permeation (%) of `O=c1oc2c(O)c(O)cc3c(=O)oc4c(O)c(O)cc1c4c23`
Output: 10.61 ± 0.08^a %

Input: # lookup: Permeation (%) of `O=C(O)CCCCCC(=O)O`
Output: 65.10 ± 1.87^a %

Input: # lookup: Permeation (%) of `N[C@@H](Cc1c[nH]c2ccccc12)C(=O)O`
Output: 37.21 ± 0.01^a %

Input: # lookup: Permeation (%) of `O=C(O)CCCCC(=O)O`
Output: 11.41 ± 0.03^a %

* * *

Each entry below carries its recorded Permeation (%).
# PROCEDURE SUMMARY: Ex vivo permeation, Franz cells
# Assay type: in vitro ADME, porcine
# STUDY CONDITIONS: from CS extract, 30 min
Marks after values point to notes of the source that are not given here.

For orientation, consider the following solved cases.
{"columns": ["COMPOUND", "Permeation (%)"],
 "data": [
  ["O=C(O)c1ccc(O)c(O)c1 [Protocatechuic acid]", "19.06 ± 0.61^a %"],
  ["O=C(O)[C@]1(O)C[C@@H](O)[C@@H](O)[C@H](O)C1 [Quinic acid]", "28.33 ± 1.16^a %"]
]}

Input: # lookup: Permeation (%) of O=C(O)CCC(=O)O [Succinic acid]
Output: 70.72 ± 3.61^b %

Input: # lookup: Permeation (%) of O=C(O)CCCCCCCCCC(=O)O [Undecanedioic acid]
Output: 86.86 ± 3.52^a %

Input: # lookup: Permeation (%) of O=C(O)C[C@H](C(=O)O)[C@@H](O)C(=O)O [Isocitric acid]
Output: 13.91 ± 1.51^a %

Input: # lookup: Permeation (%) of N[C@@H](Cc1c[nH]c2ccccc12)C(=O)O [L-Tryptophan]
Output: 27.24 ± 0.23^a %

Input: # lookup: Permeation (%) of O=C(O)CCCCC(=O)O [Adipic acid]
Output: 9.47 ± 0.07^a %

Input: # lookup: Permeation (%) of O=C(O)c1cccc(O)c1 [3-Hydroxybenzoic acid]
Output: 4.76 ± 0.02^a %

Input: # lookup: Permeation (%) of O=C(O)CCCCCC(=O)O [Pimelic acid]
Output: 67.06 ± 2.58^a %

Input: # lookup: Permeation (%) of COc1cc(CC(=O)O)ccc1O [Homovanillic acid]
Output: 100.53 ± 3.72^a %

Input: # lookup: Permeation (%) of O=C(CCc1ccc(O)cc1)c1c(O)cc(O)cc1O[C@@H]1O[C@H](CO)[C@@H](O)[C@H](O)[C@H]1O [Phlorizin]
Output: 17.60 ± 0.30^a %

Input: # lookup: Permeation (%) of N[C@@H](Cc1ccccc1)C(=O)O [L-Phenylalanine]
Output: 8.57 ± 1.47^a %

* * *

# Tested on: TR146 cells
# PROCEDURE SUMMARY: In vitro permeation, buccal model
# Format: in vitro ADME, human
# STUDY CONDITIONS: from CS-loaded OFs, 120 min
Marks after values point to notes of the source that are not given here.
Each entry below carries its recorded Permeation (%).

For orientation, consider the following solved cases.
{"columns": ["TEST SMILES", "Permeation (%)"],
 "data": [
  ["O=C(O)CCC(=O)O", "88.23 ± 1.26^c %"],
  ["O=C(O)c1ccc(O)c(O)c1", "106.06 ± 0.78^b %"],
  ["O=C1CC[C@@H](C(=O)O)N1", "66.95 ± 3.71^b %"],
  ["COc1cc(CC(=O)O)ccc1O", "109.09 ± 1.97^a %"],
  ["COc1cc(-c2oc3cc(O)cc(O)c3c(=O)c2O)ccc1O", "99.38 ± 1.47^a %"]
]}

Could you now look at the following compound, please?
Input: # lookup: Permeation (%) of `O=C(O)C[C@H](C(=O)O)[C@@H](O)C(=O)O`
Output: 1.40 ± 0.04^b %

* * *

# System: TR146 cells
# PROCEDURE SUMMARY: In vitro permeation, buccal model
# Assay type: in vitro ADME, human
# STUDY CONDITIONS: from CS extract, 15 min
Marks after values point to notes of the source that are not given here.
TEST READOUT: Permeation (%)

For orientation, consider the following solved cases.
{"columns": ["MOLECULE", "Permeation (%)"],
 "data": [
  ["O=C(O)C[C@H](C(=O)O)[C@@H](O)C(=O)O [Isocitric acid]", "0.04 ± 0.01^a %"],
  ["O=C1CC[C@@H](C(=O)O)N1 [Pyroglutamic acid]", "13.92 ± 0.12^a %"],
  ["COC(=O)c1cc(O)c(O)c(O)c1 [Methyl gallate]", "37.24 ± 0.04^a %"]
]}

Input: # lookup: Permeation (%) of COc1cc(-c2oc3cc(O)cc(O)c3c(=O)c2O)ccc1O [Isorhamnetin]
Output: 99.26 ± 2.34^a %
